conditions: intravenous administration, 10 mg/kg, SD rats
Please go through the items and note down their MRTINF.
Form entry: value (h) — number only.

Request: Fill in reported MRTINF for this entry: CN1CC[C@]23c4c5ccc(O)c4O[C@H]2[C@@H](OCCOCCO[C@H]2C=C[C@H]4[C@H]6Cc7ccc(O)c8c7[C@@]4(CCN6C)[C@H]2O8)C=C[C@H]3[C@H]1C5 [α-6-O-PEG2-(morphine)2]
Response: 2.08

Request: For the molecule CN1CC[C@]23c4c5ccc(O)c4O[C@H]2[C@@H](OCCO[C@H]2C=C[C@H]4[C@H]6Cc7ccc(O)c8c7[C@@]4(CCN6C)[C@H]2O8)C=C[C@H]3[C@H]1C5 [α-6-O-PEG1-(morphine)2] , give its reported MRTINF.
Response: 2.46

Request: Name the recorded MRTINF of the item CN1CC[C@]23c4c5ccc(O)c4O[C@H]2[C@@H](OCCOCCOCCOCCOCCOCCO[C@H]2C=C[C@H]4[C@H]6Cc7ccc(O)c8c7[C@@]4(CCN6C)[C@H]2O8)C=C[C@H]3[C@H]1C5 [α-6-O-PEG6-(morphine)2] in your answer.
Response: 3.22

Request: Fill in reported MRTINF for this entry: CN1CC[C@]23c4c5ccc(O)c4O[C@H]2[C@@H](OCCOCCOCCOCCOCCO[C@H]2C=C[C@H]4[C@H]6Cc7ccc(O)c8c7[C@@]4(CCN6C)[C@H]2O8)C=C[C@H]3[C@H]1C5 [α-6-O-PEG5-(morphine)2]
Response: 3.52

Request: Note down MRTINF recorded for CN1CC[C@]23c4c5ccc(O)c4O[C@H]2[C@@H](OCCOCCOCCOCCO[C@H]2C=C[C@H]4[C@H]6Cc7ccc(O)c8c7[C@@]4(CCN6C)[C@H]2O8)C=C[C@H]3[C@H]1C5 [α-6-O-PEG4-(morphine)2]
Response: 6.12

Request: Read off the recorded MRTINF for CN1CC[C@]23c4c5ccc(O)c4O[C@H]2[C@@H](OCCOCCOCCOCCOCCOCCOCCOCCOCCO[C@H]2C=C[C@H]4[C@H]6Cc7ccc(O)c8c7[C@@]4(CCN6C)[C@H]2O8)C=C[C@H]3[C@H]1C5 [α-6-O-PEG9-(morphine)2]
Response: 7.91
